Target: human S1P1 receptor (Homo sapiens, UniProt P21453)
Construct: membranes from cells stably expressing the S1P1 receptor
Sequence (P21453 whole entry): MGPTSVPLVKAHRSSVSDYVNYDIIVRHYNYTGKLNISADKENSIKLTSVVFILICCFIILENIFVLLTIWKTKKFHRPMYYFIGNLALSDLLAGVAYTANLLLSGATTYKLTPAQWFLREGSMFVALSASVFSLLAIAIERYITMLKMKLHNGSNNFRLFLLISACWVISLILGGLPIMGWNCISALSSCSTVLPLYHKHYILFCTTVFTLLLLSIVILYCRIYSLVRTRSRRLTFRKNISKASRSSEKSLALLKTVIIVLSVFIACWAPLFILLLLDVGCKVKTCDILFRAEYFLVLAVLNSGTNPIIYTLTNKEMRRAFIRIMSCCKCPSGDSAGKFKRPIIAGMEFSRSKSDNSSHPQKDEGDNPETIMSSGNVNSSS
Assay: GTP γ35S binding assay for S1P1 activity
Details: membranes of cells stably expressing the S1P1 receptor, test compounds 0.08 to 5,000 nM, 30 min at 25° C.
Binary label based on EC50 with cut-off 10 nM: below gives criterion met, not below gives criterion not met.

Worked cases, answers included:
| COMPOUND | DISCRETE LABEL |
| --- | --- |
| CCCCC(CCCOc1ccc(CN2CC(C(=O)O)C2)cc1Br)Cc1ccc(C)c(C)c1 (stereo not drawn) | criterion met |
| CCCC(CCCOc1ccc(CN2CC(C(=O)O)C2)cc1C)Cc1ccc(C)c(C)c1 (stereo not drawn) | criterion not met |
| CCCCC(CCCOc1c(C)cc(CN2CC(C(=O)O)C2)cc1C)Cc1ccc(C)c(C)c1 (stereo not drawn) | criterion not met |
| CCCCC(CCCOc1ccc(CN2CC(C(=O)O)C2)cc1)Cc1ccc(C)c(C)c1 (stereo not drawn) | criterion met |
| CCCC(CCCOc1c(C)cc(CN2CC(C(=O)O)C2)cc1C)Cc1ccc(C)c(C)c1 (stereo not drawn) | criterion met |

Switching to the query record.
hey, is EC50 for CCCCCC(CCCOc1ccc(CN2CC(C(=O)O)C2)cc1Cl)Cc1ccc(C)c(C)c1 (stereo not drawn) lower than 10 nM or not?
criterion not met

----------
Molecular target: human S1P1 receptor (Homo sapiens, UniProt P21453)
Construct: membranes from cells stably expressing the S1P1 receptor
Assay: GTP γ35S binding assay for S1P1 activity
Details: membranes of cells stably expressing the S1P1 receptor, test compounds 0.08 to 5,000 nM, 30 min at 25° C.
Recorded pEC50 for the following compounds
# pEC50 is unitless: minus log10 of the molar concentration; print number only

| COMPOUND | ASSAY READOUT | REPORTED RESULT |
| --- | --- | --- |
| CCCCC(CCCOc1ccc(CN2CC(C(=O)O)C2)cc1F)Cc1ccc(C)c(C)c1 (stereo not drawn) | pEC50 | 8.27 |
| CCCC(CCCOc1ccc(CN2CC(C(=O)O)C2)cc1Cl)Cc1ccc(C)c(C)c1 (stereo not drawn) | pEC50 | 7.94 |
| CCCCCC(CCCOc1ccc(CN2CC(C(=O)O)C2)cc1)Cc1ccc(C)c(C)c1 (stereo not drawn) | pEC50 | 8.22 |
| CCCC(CCCOc1ccc(CN2CC(C(=O)O)C2)cc1)Cc1ccc(C)c(C)c1 (stereo not drawn) | pEC50 | 8.19 |
| CCCCCCC(CCCOc1ccc(CN2CC(C(=O)O)C2)cc1)Cc1ccc(C)c(C)c1 (stereo not drawn) | pEC50 | 6.99 |

Name the recorded pEC50 of the item CCCCC(CCCOc1c(F)cc(CN2CC(C(=O)O)C2)cc1OC)Cc1ccc(C)c(C)c1 (stereo not drawn) in your answer.
8.54

Name the recorded pEC50 of the item CCCCC(CCCOc1ccc(CN2CC(C(=O)O)C2)cc1Cl)Cc1ccc(C)c(C)c1 (stereo not drawn) in your answer.
8.57

Name the recorded pEC50 of the item CCC(CCCOc1ccc(CN2CC(C(=O)O)C2)cc1)Cc1ccc(C)c(C)c1 (stereo not drawn) in your answer.
7.16

Name the recorded pEC50 of the item CCCCC(CCCOc1ccc(CN2CC(C(=O)O)C2)cc1C)Cc1ccc(C)c(C)c1 (stereo not drawn) in your answer.
8.24
